- Tested on: SNB-75 CNS
- METHOD DESCRIPTION: NCI-60 one-dose screen, 48 h (100 = growth as untreated, 0 = no growth, -100 = all killed)
- CONDITIONS: 10 µM unless noted
The panel holds about 83,000 compounds, 20% with a hit somewhere; the sample as a whole holds those more often.
Provide the reported growth of each item.
Numbers only, in %.

# annotated cases, reported growth shown
                                   compound  obs_value
0  c1ccc(N2N=C(c3cccc(Nc4ccncc4)c3)CC2c2ccc3c(c2)OCO3)cc1 (stereo not given)       5.74
1  COc1cc(CCNc2nc3cc(N)cc(N)c3nc2-c2ccccc2)cc(OC)c1       39.9
2  C1=C2CNCC3=Cc4ccc5ccccc5c4OC23Oc2c1ccc1ccccc21       34.5
3  Cc1cc(C)n(Nc2nc3ccccc3[nH]c2=O)c(=O)c1C#N       79.5
4  CC(=O)N1N=C(c2cccc(Nc3ccncc3)c2)CC1c1ccccc1 (stereo not given)       53.3
5             c1ccc(CCSc2ncnc3nc[nH]c23)cc1       98.7
6  S=c1[nH]cccc1-c1nnc2n1Nc1nc3ccc(Cl)cc3cc1CS2       91.4
7  CC(=O)[C@@H]1CC[C@]2(C(N)=O)CC[C@]3(C)[C@H](CC[C@@H]4[C@@]5(C)CCC(=O)C(C)(C)[C@@H]5CC[C@]43C)[C@@H]12         89

For each listed entry, give its growth.
1. Fc1cc(C2=NNC(c3ccc[nH]3)C2)ccc1-n1ccc(C(F)(F)F)n1 (stereo not given)
2. Cc1ccccc1CNc1ccc(N2CCOCC2)cc1

Marked response:
[87.7, 92.7]

###

- Test system: NCI/ADR-RES ovarian
- METHOD DESCRIPTION: NCI-60 one-dose screen, 48 h
- CONDITIONS: 10 µM unless noted
About 83,000 compounds went through this panel and 20% of them were active in at least one assay; those are over-represented in the sample as a whole. Active and inactive are the calls of the source. Rule for the calls: active = growth percent below 10; inactive = the rest.
Thanks in advance; please answer with one of these: active, inactive

Some solved entries appear below for comparison.
>>> df
                                        mol  group_label
0  Cc1ccc(C(=O)Nc2ccccc2C(=O)N/N=C(\c2ccccc2)c2ccccn2)cc1     inactive
1  O=S(=O)(NCCNc1nccc(-c2c(-c3cccc(F)c3)nc3occn23)n1)c1cccc2ccccc12     inactive
2    O=C1Nc2c(ccc(Cl)c2Cl)/C1=C/c1ccc(F)cc1     inactive
3                COC(=O)Nc1ccc(NC(=O)OC)cc1     inactive
4  Cc1ccc(-c2csc(/N=C3\C(=O)Nc4ccccc43)n2)cc1     inactive

Exam item: Assay result, entry COc1ccc(-c2c[nH]c(C(=O)O)c2-c2cc(OC)c3c(c2OC)OCO3)cc1 — outcome?
Marked response: inactive

Exam item: Assay result, entry COc1cc(-c2nc3sccn3c2-c2ccnc(NCCNS(=O)(=O)c3ccc(F)cc3)n2)ccc1F — outcome?
Marked response: active

Exam item: Assay result, entry O=C(CCN1CCCC1)Nc1ccc2c(Nc3ccccc3)c3ccccc3nc2c1 — outcome?
Marked response: inactive

Exam item: Assay result, entry COc1ccc(C(=O)c2cc3c(N)c(C(=O)Nc4cccc(Cl)c4)sc3nc2C)cc1 — outcome?
Marked response: active

Exam item: Assay result, entry Cc1ccccc1CNc1ccc(N2CCOCC2)cc1 — outcome?
Marked response: inactive

###

- Test system: OVCAR-4 ovarian
- METHOD DESCRIPTION: NCI-60 one-dose screen, 48 h (100 = growth as untreated, 0 = no growth, -100 = all killed)
- CONDITIONS: 10 µM unless noted
About 83,000 compounds went through this panel and 20% of them were active in at least one assay; those are over-represented in the sample as a whole.
Provide the reported growth of each item.
Answers are plain numbers, in %.

# annotated cases, reported growth shown
>>> print(df.to_string())
                                   compound  obs_value
0  CN1CCN(Cc2ccc(NC(=O)c3cncc(C#Cc4cnccc4C(F)(F)F)c3)cc2C(F)(F)F)CC1       59.2
1  CN1C(=O)N(C)C2NC(N/N=C/c3ccccc3)=NC21 (centres undefined)        103

For each listed entry, give its growth.
1. c1ccc(-c2nnc(Nc3ccc4c(c3)OCCO4)o2)c(NCc2ccncc2)c1
2. O=C1CCCCCCCCC(O)C(O)CCCC(c2cccs2)O1 (centres undefined)
3. COc1cccc(NC(=O)c2cccc(-c3cc(=O)c4c(OC)c(OC)c(OC)cc4o3)c2)c1
4. O=C(N/N=C/c1cccnc1)c1ccccc1Nc1cccc(C(F)(F)F)c1

Marked response:
1. 35.5
2. 78.8
3. 62.6
4. 70.3

###

- Tested on: SF-268 CNS
- METHOD DESCRIPTION: NCI-60 one-dose screen, 48 h (100 = growth as untreated, 0 = no growth, -100 = all killed)
- CONDITIONS: 10 µM unless noted
This is part of a sample that, as a whole, favours compounds with a hit. Of some 83,000 tested, about 20% had one in any assay.
ENDPOINT NAME: growth (%)
Answers are plain numbers, in %.

                                   compound  scale_unit  obs_value
0  CCCCCCCC(=O)Nc1nc2[nH]c(CN3CCN(Cc4cccc(I)c4)CC3)c(CN3CCN(Cc4cccc(I)c4)CC3)c2c(=O)[nH]1           %      -82.9

For each listed entry, give its growth.
1. NC(=O)CN1CCN(c2ccccc2Cl)CC1
2. CN1CCCC1=Nc1ccccc1

Marked response:
1: 106; 2: 124

For each listed entry, give its growth.
1. COc1ccc(C2CC(c3cccc(Nc4ccncc4)c3)=NN2c2ccc(Cl)cc2)cc1 (stereo not given)
2. COC(=O)C1NC(=S)N(c2ccc(Cl)cc2)C1/C=C/c1ccccc1 (stereo not given)

Marked response:
[62.1, 101]

###

- Test system: NCI-H226 lung
- METHOD DESCRIPTION: NCI-60 one-dose screen, 48 h
- CONDITIONS: 10 µM unless noted
The panel holds about 83,000 compounds, 20% with a hit somewhere; the sample as a whole holds those more often. Activity calls are given as the source filed them. Rule for the calls: active = growth percent below 10; inactive = the rest.
Thanks in advance; please answer with one of these: label 1 for active, label 0 for inactive

MOLECULE	GROUP LABEL
CC(=O)c1c[nH]c2ccc(-c3ccnc(Nc4ccc(NC(=O)C5CCCC5)c(CN5CCOCC5)c4)n3)cc12	label 1
CCCCCCC/C=C/[C@H]1O[C@]2(O)C(=O)C=C3C[C@@H](O[C@@H]4O[C@H](CO)[C@@H](O)C(O)[C@@H]4O)C[C@@H]3[C@H]2C=C1C (some centres undefined)	label 1
CCOC(=O)c1c(C)nc2c(c1N)C(=O)C(=O)N2Cc1ccc(C(F)(F)F)cc1	label 0

Exam item: Assay result, entry O=C(N/N=C/c1ccc(O)c(O)c1)c1sc2ccccc2c1Cl — outcome?
Marked response: label 0

###

- Tested on: EKVX NSCLC
- METHOD DESCRIPTION: NCI-60 one-dose screen, 48 h (100 = growth as untreated, 0 = no growth, -100 = all killed)
- CONDITIONS: 10 µM unless noted
The panel holds about 83,000 compounds, 20% with a hit somewhere; the sample as a whole holds those more often.
Could you label it condition met if measured growth is 70% or higher, and condition not met otherwise?

Some solved entries appear below for comparison.
COMPOUND	STUDY SYSTEM	GROUP LABEL
CC(=O)c1cc2c(N)c(C(=O)Nc3cncc4ccccc34)sc2nc1C	EKVX NSCLC	condition met
Cc1ccccc1-c1cc(Cc2ccc(F)cc2)c(=O)[nH]n1	EKVX NSCLC	condition met
CC[C@H](C)[C@@H]1NC(=O)[C@H](Cc2ccc(O)cc2)N(C)C(=O)[C@H](Cc2ccccc2)NC(=O)CN(C)C(=O)[C@@H]2CCCN2C(=O)[C@@H](Cc2ccccc2)N(C)C(=O)[C@H](CC(C)C)NC1=O	EKVX NSCLC	condition not met
CC(O)(CO)c1ccccc1 (centres undefined)	EKVX NSCLC	condition met

Exam item: State whether the measured growth reaches 70%, counting equality as reaching it, for NC(=O)C1(N2CCCCC2)CCN(CCCC(=O)c2ccc(F)cc2)CC1
Marked response: condition not met

Exam item: State whether the measured growth reaches 70%, counting equality as reaching it, for CC(C)(C)OC(=O)N1CCN(c2ccc(N)cc2)C(=O)C1
Marked response: condition met

Exam item: State whether the measured growth reaches 70%, counting equality as reaching it, for Cc1cc2nc(-c3ccccc3)c(-c3ccccc3)nc2cc1C
Marked response: condition met

Exam item: State whether the measured growth reaches 70%, counting equality as reaching it, for Cn1c(COC(=O)N2CCCCC2)nc2c(N3CCOCC3)nc(-c3ccccc3)nc21
Marked response: condition not met
